- assay.explanation: NCI Yeast Anticancer Drug Screen. Data for the mec2-1 strain (AID 157)
- test.settings: S. cerevisiae mec2-1 strain, at 33.0 µM
- Experimental: Growth inhibition of yeast strains with defined genetic alterations is measured as a screen for potential anti-cancer activity. Selected strains with alterations in DNA damage repair or cell cycle control were exposed to compounds and growth inhibition was measured relative to vehicle treated controls. The strain used in this assay is mec2-1
The panel holds about 79,000 compounds, 15% with a hit somewhere; the sample as a whole holds those more often. Activity calls are given as the source filed them. Cut-off read from the data, not from the text of the source: active = growth inhibition above about 70%; inactive = the rest.
Please reply with one of these outcomes: active, inactive

What call does the record list for CCS(=O)(=O)c1ccc(/C=C/C=N/NC(=S)NCC(C)C)cc1 ? inactive

What call does the record list for CCC(=O)OCCn1c2nc(=O)[nH]c(=O)c-2nc2cc(C)c(C)cc21 ? inactive

What call does the record list for O=C(O)CNc1ccc(Cl)c(Cl)c1 ? inactive

What call does the record list for O=[N+]([O-])c1cc2no[n+]([O-])c2cc1N1CCCCC1 ? active

What call does the record list for CCCCN1C(=O)N(c2ccc(OCC)cc2)C2N(CCCC)C1C(C)(C)C2(C)C (stereo not drawn) ? inactive

What call does the record list for [O-][n+]1c2ccc(O)cc2nc2ccc(Cl)cc21 ? inactive

What call does the record list for S=C(Nc1ccc(Cl)cc1)SC1CCCCC1 ? active

What call does the record list for Cc1cc2c(cc1C(=O)CCC(=O)O)CC1(C2)Cc2cc(C)c(C(=O)CCC(=O)O)cc2C1 ? inactive

What call does the record list for CCOC(=O)c1cc(-c2ccc(Cl)cc2)c([N+](=O)[O-])n1C ? active

What call does the record list for NC(=O)NN=C(CS)CS ? inactive

What call does the record list for C=CCC1=C(C)C(OC(=O)/C=C/c2ccccc2)CC1=O (stereo not drawn) ? inactive

What call does the record list for CCC[CH2][Ge]([CH2]CCC)([CH2]CCC)[O]C(=O)C(OC)c1ccccc1 (stereo not drawn) ? inactive

What call does the record list for COc1ccc2nc3cccc([N+](=O)[O-])c3c(NCCN(CCO)CCO)c2c1 ? active

What call does the record list for C/C(=N/NC(=S)N1CCCCCC1)c1cccc(/C(C)=N\NC(=S)N2CCCCCC2)n1 ? active

What call does the record list for O=C(NNc1ccnc2cc(Cl)ccc12)/C(=C\c1ccccc1Cl)NC(=O)c1ccccc1 ? inactive

What call does the record list for NNC(=O)CCc1ccc2ccc3ccccc3c2c1 ? inactive

What call does the record list for Clc1ccc(SC(/C=C/NNC2=NC(c3ccccc3)C(c3ccccc3)=NN2)c2ccccc2)cc1 (stereo not drawn) ? inactive

What call does the record list for O=C(NC(Nc1ccc(F)c(Cl)c1)(C(F)(F)F)C(F)(F)F)C(C(F)(F)F)C(F)(F)F ? active

What call does the record list for C[S+](C)C1(c2ccccc2)C(=O)c2ccccc2C1=O ? inactive

What call does the record list for CC(C)OC(=O)Oc1ccccc1OC(=O)OC(C)C ? inactive

What call does the record list for Nc1ccc2c(c1)C(=O)c1cccc(N)c1C2=O ? inactive

What call does the record list for O=CC=C(c1ccccc1)c1ccccc1 ? inactive

What call does the record list for N#CSc1ccc(S(N)(=O)=O)cc1 ? inactive

----------
I'd be grateful if you could share measured growth inhibition for these entries.
- assay.explanation: NCI Yeast Anticancer Drug Screen. Data for the wt2 strain (AID 169);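 note: 0% = growth of vehicle-treated yeast cultures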
- test.settings: S. cerevisiae wt2 strain growth inhibition; at 100.0 µM; stronger effect = higher value
- Experimental: Growth inhibition of yeast strains with defined genetic alterations is measured as a screen for potential anti-cancer activity. Selected strains with alterations in DNA damage repair or cell cycle control were exposed to compounds and growth inhibition was measured relative to vehicle treated controls. The strain used in this assay is wt2
About 79,000 compounds went through this panel and 15% of them were active in at least one assay; those are over-represented in the sample as a whole.
Report as a plain number; the unit % is understood.

Consider the compound CC1=C(C)Cc2c(O)ccc(O)c2C1 and give its measured growth inhibition. -4

Consider the compound COCCOC(=O)CCn1cc(F)c(=O)[nH]c1=O and give its measured growth inhibition. 76

Consider the compound COc1cc(C2C3=C(COC3=O)Oc3cc4c(cc32)OCO4)ccc1O (stereo not drawn) and give its measured growth inhibition. 42

Consider the compound CCCCCCCCCCCCCCCCCCN(C)CC(COP(=O)([O-])OCC[N+](C)(C)C)OC (stereo not drawn) and give its measured growth inhibition. 98

Consider the compound O=C1c2ccccc2-c2nc3ccccc3nc21 and give its measured growth inhibition. 61

Consider the compound Nc1ccc2c(c1)C(=O)c1cccc(N)c1C2=O and give its measured growth inhibition. 72

Consider the compound CN(Cc1cnc2nc(N)nc(N)c2n1)c1ccc(C(=O)N[C@@H](CCC(=O)O)C(=O)O)cc1 and give its measured growth inhibition. 47

Consider the compound CCCCCCCCCCCCCCCCCCOCC(O)COP(=O)(O)OCC1OC(n2cc(F)c(=O)[nH]c2=O)CC1O (stereo not drawn) and give its measured growth inhibition. 94

Consider the compound O=C1C=CC(=O)c2c(O)c(Nc3ccc(OC(F)(F)F)cc3)c(Cl)c(O)c21 and give its measured growth inhibition. 93

Consider the compound COc1ccc2c(c1)C(=O)c1ccccc1C2 and give its measured growth inhibition. 7

Consider the compound O=C(O)C1CCCCC1c1c2ccc(=O)c(O)c-2oc2c(O)c(O)ccc12 (stereo not drawn) and give its measured growth inhibition. 73

Consider the compound O=C(NCCCCNCCCNC(=O)c1cc(-c2ccccc2)nc2ccccc12)c1cc(-c2ccccc2)nc2ccccc12 and give its measured growth inhibition. 93

Consider the compound O=[N+]([O-])c1cc2no[n+]([O-])c2cc1N1CCCCC1 and give its measured growth inhibition. 98

Consider the compound O=CNc1ccc2c(c1)C(=O)c1ccccc1-2 and give its measured growth inhibition. 96

Consider the compound Cc1ccc(Cl)c2[nH]c(-c3ccccc3)cc(=O)c12 and give its measured growth inhibition. -1

Consider the compound Clc1cccc(C(Nc2nncs2)Nc2nncs2)c1Cl and give its measured growth inhibition. 54

Consider the compound CC(C)C1=CCC2C(=C1)CCC1C(C)(C(=O)O)CCCC21C (stereo not drawn) (tested in a mixture with another compound) and give its measured growth inhibition. 93

Consider the compound N#CN=Nc1cc(Cl)c(N=NC#N)cc1Cl and give its measured growth inhibition. 30

Consider the compound O=C(Cc1csc2[n+]1C(=O)/C(=C/c1ccc(Cl)cc1)S2)Nc1ccccc1 and give its measured growth inhibition. 82

Consider the compound Cc1cc(O)cc(O)c1N=Nc1ccc([N+](=O)[O-])cc1 and give its measured growth inhibition. 45

Consider the compound C/C(=N\NC(=S)SCc1ccccc1)c1ccccn1 and give its measured growth inhibition. 92

Consider the compound O=Nc1cccnc1N=O and give its measured growth inhibition. 99

Consider the compound NC(=S)N/N=C\c1nccc2ccccc12 and give its measured growth inhibition. 99

----------
- assay.explanation: NCI Yeast Anticancer Drug Screen. Data for the rad18 strain (AID 177)
- test.settings: S. cerevisiae rad18 mutant growth inhibition; at 11.0 µM
- Experimental: Growth inhibition of yeast strains with defined genetic alterations is measured as a screen for potential anti-cancer activity. Selected strains with alterations in DNA damage repair or cell cycle control were exposed to compounds and growth inhibition was measured relative to vehicle treated controls. The strain used in this assay is rad18
Compounds without any hit were thinned out: in the full panel of roughly 79,000, 15% have a hit. The source made the active and inactive calls. No stated cut-off is given here; in the data, active means growth inhibition above about 70%; inactive means the rest.
Please reply with one of these outcomes: active, inactive

What call does the record list for CC(C)(Br)C(=O)/C=C/c1ccc(Cl)c(Cl)c1 ? inactive

What call does the record list for COc1cc2c(c(OC)c1OC)-c1c(cc3c(c1OC)OCO3)CC(C)C(C)(O)C2OC(=O)c1ccccc1 (centres undefined) ? inactive

What call does the record list for COc1ccc2nc3c([N+](=O)[O-])ccc(NCCN(C)C)c3c(NCCN(C)C)c2c1 ? inactive

What call does the record list for CN(C)C[C@H]1CC[C@@H](CN(C)C)C1=O ? inactive

What call does the record list for Cc1ccc(S/N=C\c2ccccc2O)cc1 ? inactive

What call does the record list for CCNc1nnc(CSc2nc(-c3ccccc3)c(-c3ccccc3)[nH]2)s1 ? inactive

What call does the record list for O=C(Cc1csc2[n+]1C(=O)/C(=C/c1ccc(Cl)cc1)S2)Nc1ccccc1 ? inactive

What call does the record list for Cc1nc(-c2ccccc2)c(-c2ccccc2)s1 ? inactive

What call does the record list for CNC1C(OC2C(OC3C(O)C(O)C(N=C(N)N)C(O)C3N=C(N)N)OC(C)C2(O)CO)OC(CO)C(O)C1O (centres undefined) ? inactive

What call does the record list for CSC(=S)Nc1cc(C)ccn1 ? inactive

What call does the record list for BrCc1cccc2ccc3cccc(CBr)c3c12 ? inactive

What call does the record list for Oc1ccc(NCn2c(=S)sc3ccccc32)cc1 ? inactive

What call does the record list for CC1=C(SCCO)C(=O)c2ccccc2C1=O ? inactive

What call does the record list for CN(N=O)N1C(=O)SCC(c2ccccc2)(c2ccccc2)C1=O ? inactive

What call does the record list for COC(=O)c1ccc(NCC2=CC(=O)C=CC2=O)cc1O ? active

What call does the record list for c1ccc2c(c1)c1ncccc1c1nccnc21 ? inactive

What call does the record list for O=C1c2cc([N+](=O)[O-])ccc2-c2cccc(F)c21 ? active

What call does the record list for CCC(=O)OCCn1c2nc(=O)[nH]c(=O)c-2nc2cc(C)c(C)cc21 ? inactive

What call does the record list for CC1C(NNc2ccccc2)Oc2cc3c(cc2C1c1ccccc1O)OCO3 (centres undefined) ? active

What call does the record list for Cn1ccnc1Oc1ccc(Cl)cc1 ? inactive

What call does the record list for CCOC(=O)C1=C(C(=O)c2ccccc2)C(c2ccccc2[N+](=O)[O-])C(C(=O)c2ccccc2)=C(C(=O)OCC)N1 ? inactive

What call does the record list for COc1ccc(OC)c2cc3ccccc3cc12 ? inactive

What call does the record list for CCCCCCCC1(N=[N+]=[N-])C(=O)c2ccccc2N(C)C1=O (centres undefined) ? inactive

What call does the record list for CSC(=S)Nc1cccc(C)n1 ? inactive
